// data source = paper PMC3351189

- System Name: WD-repeat protein-5 (WDR5), S22-334 (UniProt P61964 22-334)
- Measurement Description: ITC
Value Type: Kd (nM)
Number only, in nM; omit the unit.

Find the recorded Kd belonging to GCARSEPKILT [MLL2 Win motif peptide (MLL2Win)] and report it.
160

Find the recorded Kd belonging to GCARSEGFYTI [SET1B Win motif peptide (SET1BWin)] and report it.
100

Find the recorded Kd belonging to GSARAEVHLRK [MLL1 Win motif peptide (MLL1Win)] and report it.
1130

Find the recorded Kd belonging to GSARAEPKMSA [MLL3 Win motif peptide (MLL3Win), C4708S substituted] and report it.
2030

Find the recorded Kd belonging to GAARAEVYLRK [MLL4 Win motif peptide (MLL4Win)] and report it.
30

Find the recorded Kd belonging to GSARSEGYYPI [SET1A Win motif peptide (SET1AWin)] and report it.
260
